compounds and their reported IC50
Target: CRTH2 (Homo sapiens)
Construct: endogenous in cells; host or cells: eosinophils in human whole blood
Sequence (Q9Y5Y4 whole entry): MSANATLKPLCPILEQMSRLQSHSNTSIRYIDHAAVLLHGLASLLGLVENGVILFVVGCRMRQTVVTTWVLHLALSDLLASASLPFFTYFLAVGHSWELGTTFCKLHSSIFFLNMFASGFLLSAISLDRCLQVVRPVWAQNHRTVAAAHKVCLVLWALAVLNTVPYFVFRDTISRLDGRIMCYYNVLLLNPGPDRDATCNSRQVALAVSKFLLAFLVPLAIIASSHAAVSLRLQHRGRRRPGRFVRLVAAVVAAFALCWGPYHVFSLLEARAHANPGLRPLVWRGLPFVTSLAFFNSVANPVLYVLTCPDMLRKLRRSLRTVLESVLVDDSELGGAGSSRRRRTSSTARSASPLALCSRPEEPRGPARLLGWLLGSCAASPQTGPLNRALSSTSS
Assay: DPBS CD11b antagonist assay (CD11b expression in eosinophils challenged with 15R-Methyl-PGD2)
Assay type: cell-based
Details: polymorphonuclear cells in PBS with CaCl2/MgCl2; agonist 15R-Methyl-PGD2 10 nM; eosinophils gated by flow cytometry

Some solved entries appear below for comparison.
| compound | system | experimental result |
| --- | --- | --- |
| CCOC(=O)Cn1c(C)c(Cc2cccnc2S(=O)(=O)c2cccc(OC)c2)c2c1CC(C)(C)CC2=O [Compound I-11] | CRTH2 (Homo sapiens) | 100 to 500 nM |
| CCOC(=O)Cn1c(C)c(Cc2cccnc2S(=O)(=O)c2ccc(F)cc2)c2c1CC(C)(C)CC2=O [Compound I-8] | CRTH2 (Homo sapiens) | 20 to 100 nM |
| COc1cccc(S(=O)(=O)c2ncccc2Cc2c3c(n(CC(=O)O)c2C)CC(C)(C)CC3=O)c1 [Compound I-13] | CRTH2 (Homo sapiens) | 1 to 5 nM |

Lab note: measured IC50 of Cc1c(Cc2cccnc2S(=O)(=O)c2ccc(F)cc2)c2c(n1CC(=O)O)CC(C)(C)CC2=O [Compound I-5] was < 1 nM

Lab note: measured IC50 of Cc1c(Cc2ccccc2NS(=O)(=O)N2CCCC2)c2c(n1CC(=O)O)CC(C)(C)CC2=O [Compound I-44] was 1 to 5 nM
